// data source = ChEMBL document CHEMBL3046127

For reference, log10 of IC50 measured on Acetylcholinesterase (Musca domestica, UniProt Q7YWJ9):
# log10 transformed; quantity=IC50; unit=µM

{"Test smiles": "CCOP(=O)(OCC)SCCCCCCSP(=O)(OCC)OCC", "log10 of IC50": 0.95}
{"Test smiles": "CCOP(=S)(OCC)Oc1nc(Cl)c(Cl)cc1Cl", "log10 of IC50": 0.98}
{"Test smiles": "CCOP(=O)(OCC)SCCCCSP(=O)(OCC)OCC", "log10 of IC50": 2.03}
{"Test smiles": "CCOP(=O)(OCC)SCCCSP(=O)(OCC)OCC", "log10 of IC50": 1.51}
{"Test smiles": "CCOP(=O)(OCC)SCCCCCCCCCSP(=O)(OCC)OCC", "log10 of IC50": 2.29}

Hello, I would appreciate it if you could give log10 of IC50 for each entry below.
1. CCOP(=O)(OCC)SCCCCCCCCCCN1C(=O)c2ccccc2C1=O
2. CCOP(=O)(OCC)SCCCN1C(=O)c2ccccc2C1=O
3. CCOP(=O)(OCC)SCCCCCCN1C(=O)c2ccccc2C1=O

1: 1.91; 2: 2.19; 3: 0.97

Hello, I would appreciate it if you could give log10 of IC50 for each entry below.
1. CCOP(=O)(OCC)SCCCCCSP(=O)(OCC)OCC
2. CCOP(=O)(OCC)SCCCCCCCSP(=O)(OCC)OCC
3. CCOP(=O)(OCC)SCCCCCN1C(=O)c2ccccc2C1=O
4. CCOP(=O)(OCC)SCCCCN1C(=O)c2ccccc2C1=O
5. CCOP(=O)(OCC)SCCCCCCCN1C(=O)c2ccccc2C1=O
6. CCOP(=O)(OCC)SCCCCCCCCN1C(=O)c2ccccc2C1=O
7. CCOP(=O)(OCC)SCCCCCCCCCCSP(=O)(OCC)OCC
8. CCOP(=O)(OCC)SCCCCCCCCCN1C(=O)c2ccccc2C1=O

[3.66, 3.32, 2.06, 1.41, 0.32, 1.14, 2.35, 2.43]

// lookup log10 of IC50 for CCOP(=O)(OCC)SCCCCCCCCSP(=O)(OCC)OCC 2.52

---

For reference, pIC50 measured on Acetylcholinesterase (Drosophila melanogaster, UniProt P07140):
Numbers only, as −log10 of the molar value.

Below, each entry is followed by its recorded pIC50 result.
{"Test smiles": "CCOP(=O)(OCC)SCCCCCCCCSP(=O)(OCC)OCC", "pIC50": 5.32}
{"Test smiles": "CCOP(=O)(OCC)SCCCSP(=O)(OCC)OCC", "pIC50": 5.79}
{"Test smiles": "CCOP(=O)(OCC)SCCCCCCSP(=O)(OCC)OCC", "pIC50": 6.06}
{"Test smiles": "CCOP(=O)(OCC)SCCCCCCCCCCSP(=O)(OCC)OCC", "pIC50": 5.75}
{"Test smiles": "CCOP(=O)(OCC)SCCCCCSP(=O)(OCC)OCC", "pIC50": 4.91}

Now look at this entry.
// lookup pIC50 for CCOP(=O)(OCC)SCCCCCCCN1C(=O)c2ccccc2C1=O 5.74

---

For reference, IC50 measured on Acetylcholinesterase (Drosophila melanogaster, UniProt P07140):
One number for each entry, in µM.

Below, each entry is followed by its recorded IC50 result.
{"Test smiles": "CCOP(=O)(OCC)SCCCCCCCCCSP(=O)(OCC)OCC", "Assay system": "Acetylcholinesterase (Drosophila melanogaster, UniProt P07140)", "IC50 [µM]": 1.43}
{"Test smiles": "CCOP(=O)(OCC)SCCCCCCCSP(=O)(OCC)OCC", "Assay system": "Acetylcholinesterase (Drosophila melanogaster, UniProt P07140)", "IC50 [µM]": 10.2}
{"Test smiles": "CCOP(=O)(OCC)SCCCCCCCCCCN1C(=O)c2ccccc2C1=O", "Assay system": "Acetylcholinesterase (Drosophila melanogaster, UniProt P07140)", "IC50 [µM]": 113}
{"Test smiles": "CCOP(=O)(OCC)SCCCN1C(=O)c2ccccc2C1=O", "Assay system": "Acetylcholinesterase (Drosophila melanogaster, UniProt P07140)", "IC50 [µM]": 8.29}
{"Test smiles": "CCOP(=O)(OCC)SCCCCSP(=O)(OCC)OCC", "Assay system": "Acetylcholinesterase (Drosophila melanogaster, UniProt P07140)", "IC50 [µM]": 8.07}
{"Test smiles": "CCOP(=S)(OCC)Oc1nc(Cl)c(Cl)cc1Cl", "Assay system": "Acetylcholinesterase (Drosophila melanogaster, UniProt P07140)", "IC50 [µM]": 1.83}
{"Test smiles": "CCOP(=O)(OCC)SCCCCCN1C(=O)c2ccccc2C1=O", "Assay system": "Acetylcholinesterase (Drosophila melanogaster, UniProt P07140)", "IC50 [µM]": 12.3}
{"Test smiles": "CCOP(=O)(OCC)SCCCCCCCCN1C(=O)c2ccccc2C1=O", "Assay system": "Acetylcholinesterase (Drosophila melanogaster, UniProt P07140)", "IC50 [µM]": 4.5}
{"Test smiles": "CCOP(=O)(OCC)SCCCCCCN1C(=O)c2ccccc2C1=O", "Assay system": "Acetylcholinesterase (Drosophila melanogaster, UniProt P07140)", "IC50 [µM]": 3.81}
{"Test smiles": "CCOP(=O)(OCC)SCCCCCCCCCN1C(=O)c2ccccc2C1=O", "Assay system": "Acetylcholinesterase (Drosophila melanogaster, UniProt P07140)", "IC50 [µM]": 37.5}

Now look at this entry.
Requested read-out IC50, target or system Acetylcholinesterase (Drosophila melanogaster, UniProt P07140), entry CCOP(=O)(OCC)SCCCCN1C(=O)c2ccccc2C1=O 9.92
